target: angiotensin converting enzyme (Oryctolagus cuniculus); construct: the supernatant was further purified with hydroxyapatite to obtain an angiotensin converting enzyme solution; from tissue; host or cells: rabbit lung (acetone powder); assay: ACE inhibition activity (hippuroylhistidylleucine substrate, hippuric acid absorbance at 228 nm); type: biochemical, rabbit; conditions: rabbit lung ACE, 5 mM hippuroylhistidylleucine, 37° C. 30 minutes; read-out: IC50
Sequence (P12822 34-1310): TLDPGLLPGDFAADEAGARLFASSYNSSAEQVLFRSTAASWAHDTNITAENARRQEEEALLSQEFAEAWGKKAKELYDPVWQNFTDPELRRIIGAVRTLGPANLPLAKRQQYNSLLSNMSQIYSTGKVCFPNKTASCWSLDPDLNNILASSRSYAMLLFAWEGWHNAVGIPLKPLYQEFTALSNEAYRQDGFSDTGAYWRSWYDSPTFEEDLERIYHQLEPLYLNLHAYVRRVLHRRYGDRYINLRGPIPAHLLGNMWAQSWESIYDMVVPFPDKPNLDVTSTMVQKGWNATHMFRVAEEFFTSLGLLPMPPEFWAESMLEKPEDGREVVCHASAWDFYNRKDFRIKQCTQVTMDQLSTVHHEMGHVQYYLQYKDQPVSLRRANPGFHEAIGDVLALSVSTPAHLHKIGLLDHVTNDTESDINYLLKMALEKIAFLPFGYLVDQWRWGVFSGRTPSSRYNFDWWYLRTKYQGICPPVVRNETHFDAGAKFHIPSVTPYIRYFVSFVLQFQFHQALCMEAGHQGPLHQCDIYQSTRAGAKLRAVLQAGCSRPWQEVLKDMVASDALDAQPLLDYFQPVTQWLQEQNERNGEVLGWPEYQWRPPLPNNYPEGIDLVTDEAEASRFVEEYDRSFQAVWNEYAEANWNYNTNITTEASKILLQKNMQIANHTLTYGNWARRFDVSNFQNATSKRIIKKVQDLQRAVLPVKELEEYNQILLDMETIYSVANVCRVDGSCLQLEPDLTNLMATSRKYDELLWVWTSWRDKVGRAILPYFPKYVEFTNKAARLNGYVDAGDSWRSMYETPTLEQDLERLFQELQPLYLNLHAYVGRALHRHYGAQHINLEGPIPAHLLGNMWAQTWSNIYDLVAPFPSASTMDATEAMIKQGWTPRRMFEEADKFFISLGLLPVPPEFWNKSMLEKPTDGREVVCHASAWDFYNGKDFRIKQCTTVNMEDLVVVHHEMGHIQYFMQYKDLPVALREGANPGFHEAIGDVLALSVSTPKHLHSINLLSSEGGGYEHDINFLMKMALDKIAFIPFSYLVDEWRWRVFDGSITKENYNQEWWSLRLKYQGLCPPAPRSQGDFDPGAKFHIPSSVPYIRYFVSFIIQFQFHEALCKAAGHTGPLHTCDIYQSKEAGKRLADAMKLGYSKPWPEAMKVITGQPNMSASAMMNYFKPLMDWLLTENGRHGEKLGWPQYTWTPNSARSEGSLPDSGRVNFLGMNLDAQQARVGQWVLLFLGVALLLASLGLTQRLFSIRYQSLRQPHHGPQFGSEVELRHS
Residues, ends and D or L forms follow the SMILES beside them.
IC50 for assorted compounds

{"compound": "CC(C)[C@H](N)C(=O)N[C@@H](C)C(=O)N[C@@H](Cc1ccc(O)cc1)C(=O)O [L--Val--L--Ala--L--Tyr, L-Val-L-Ala-L-Tyr] (H-Val-Ala-Tyr-OH)", "test.system": "angiotensin converting enzyme (Oryctolagus cuniculus)", "display.unit": "µM", "IC50": 16}
{"compound": "CC(C)C[C@H](N)C(=O)N[C@@H](CO)C(=O)N1CCC[C@H]1C(=O)O [L--Leu--L--Ser--L--Pro, L-Leu-L-Ser-L-Pro] (H-Leu-Ser-Pro-OH)", "test.system": "angiotensin converting enzyme (Oryctolagus cuniculus)", "display.unit": "µM", "IC50": 1.7}
{"compound": "CC(C)C[C@H](N)C(=O)N[C@@H](CC(N)=O)C(=O)N1CCC[C@H]1C(=O)O [L--Leu--L--Asn--L--Pro, L-Leu-L-Asn-L-Pro] (H-Leu-Asn-Pro-OH)", "test.system": "angiotensin converting enzyme (Oryctolagus cuniculus)", "display.unit": "µM", "IC50": 35}
{"compound": "CC(C)C[C@H](N)C(=O)N[C@@H](C)C(=O)N[C@@H](C)C(=O)O [L--Leu--L--Ala--L--Ala, L-Leu-L-Ala-L-Ala] (H-Leu-Ala-Ala-OH)", "test.system": "angiotensin converting enzyme (Oryctolagus cuniculus)", "display.unit": "µM", "IC50": 13}
{"compound": "CC(C)C[C@H](NC(=O)[C@@H](N)Cc1ccccc1)C(=O)N1CCC[C@H]1C(=O)O [L--Phe--L--Leu--L--Pro, L-Phe-L-Leu-L-Pro] (H-Phe-Leu-Pro-OH)", "test.system": "angiotensin converting enzyme (Oryctolagus cuniculus)", "display.unit": "µM", "IC50": 210}
{"compound": "CC[C@H](C)[C@H](N)C(=O)N[C@@H](CCCNC(=N)N)C(=O)N[C@@H](C)C(=O)N[C@@H](CCC(N)=O)C(=O)N[C@@H](CCC(N)=O)C(=O)O [L--Ile--Arg--L--Ala--L--Gln--L--Gln, L-Ile-L-Arg-L-Ala-L-Gln-L-Gln] (H-IRAQQ-OH)", "test.system": "angiotensin converting enzyme (Oryctolagus cuniculus)", "display.unit": "µM", "IC50": 160}

Value source: patent US5238921A
